Target or system Neuronal acetylcholine receptor subunit alpha-4 (Homo sapiens, UniProt P43681): recorded AC50 listed per item. Also: assay procedure not described here.

The following compounds have reported results that may help.
CCOc1ccccc1OCC1CNCCO1 (stereo not drawn) | > 10 µM
CCCN(CCC)C(=O)C(CCC(=O)O)NC(=O)c1ccccc1 (stereo not drawn) [PROGLUMIDE] | > 30 µM
C=CCN1CCCC1CNC(=O)c1cc(S(N)(=O)=O)cc(OC)c1OC (stereo not drawn) [VERALIPRIDE] | > 30 µM
CC[C@H]1CN2CCc3cc(OC)c(OC)cc3[C@@H]2C[C@@H]1C[C@H]1NCCc2cc(OC)c(OC)cc21 | > 30 µM
Cc1ccc(S(=O)(=O)NC(=O)NN2CC3CCCC3C2)cc1 (stereo not drawn) [GLICLAZIDE] | > 10 µM

For each entry beneath this line, provide reported AC50.
1. CNC(C)CCC=C(C)C (stereo not drawn)
2. COc1ccc2c3c1O[C@H]1[C@@H](O)C=C[C@H]4[C@@H](C2)N(C)CC[C@@]341
3. COC(=O)[C@H]1[C@H]2C[C@@H]3c4[nH]c5cc(OC)ccc5c4CCN3C[C@H]2C[C@@H](OC(=O)/C=C/c2cc(OC)c(OC)c(OC)c2)[C@@H]1OC

["> 30 µM", "> 10 µM", "> 10 µM"]

* * *

- SYSTEM_UNDER_TEST: UniProt:P08908
- Sequence (P08908 whole entry): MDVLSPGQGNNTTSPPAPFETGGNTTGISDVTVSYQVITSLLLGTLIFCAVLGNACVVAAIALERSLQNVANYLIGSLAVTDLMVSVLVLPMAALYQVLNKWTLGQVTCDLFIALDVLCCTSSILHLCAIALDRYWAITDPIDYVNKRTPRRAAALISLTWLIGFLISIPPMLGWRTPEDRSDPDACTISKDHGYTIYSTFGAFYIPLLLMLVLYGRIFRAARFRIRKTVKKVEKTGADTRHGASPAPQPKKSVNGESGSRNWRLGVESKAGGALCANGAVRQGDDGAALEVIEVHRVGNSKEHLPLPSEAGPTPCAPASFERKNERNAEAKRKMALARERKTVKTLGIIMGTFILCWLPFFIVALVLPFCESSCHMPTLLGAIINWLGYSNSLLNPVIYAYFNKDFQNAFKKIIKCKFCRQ
Kindly state AC50 for each of the entries shown.

The following molecules have reported results that may help.
CC/C(=C(\c1ccccc1)c1ccc(OCCN(C)C)cc1)c1ccccc1 | > 10 µM
CCCc1nc(C(C)(C)O)c(C(=O)OCc2oc(=O)oc2C)n1Cc1ccc(-c2ccccc2-c2nnn[nH]2)cc1 | > 10 µM
COc1ccc(C(=O)Nc2ccccc2CCC2CCCCN2C)cc1 (stereo not drawn) [ENCAINIDE] | > 10 µM

For each entry beneath this line, provide reported AC50.
1. CCCCCNC(=N)N/N=C/c1c[nH]c2ccc(OC)cc12
2. CN1C(=O)C(O)N=C(c2ccccc2)c2cc(Cl)ccc21 (stereo not drawn)
3. CC[C@H]1OC(=O)[C@H](C)[C@@H](O[C@H]2C[C@@](C)(OC)[C@@H](O)[C@H](C)O2)[C@H](C)[C@@H](O[C@@H]2O[C@H](C)C[C@H](N(C)C)[C@H]2O)[C@](C)(O)C[C@@H](C)CN(C)[C@H](C)[C@@H](O)[C@]1(C)O
4. Clc1ccccc1C(c1ccccc1)(c1ccccc1)n1ccnc1
5. CN(C)CCC=C1c2ccccc2C=Cc2ccccc21

["0.169 µM", "> 10 µM", "> 10 µM", "> 10 µM", "4.94 µM"]

* * *

Target or system Endothelin-1 receptor (Homo sapiens, UniProt P25101): recorded AC50 listed per item. Also: assay procedure not described here.

The following compounds have reported results that may help.
CC(=O)O[C@H]1C[C@@H]2CC[C@@H]3[C@H](CC[C@@]4(C)[C@H]3C[C@H]([N+]3(C)CCCCC3)[C@@H]4OC(C)=O)[C@@]2(C)C[C@@H]1N1CCCCC1 | > 30 µM
CCc1c(Cl)c(O)c(Cl)c(O)c1C(=O)O[C@H]1[C@H](O)[C@H](OC)[C@H](OC/C2=C\C=C\C[C@H](O)/C(C)=C/[C@H](CC)[C@@H](O[C@@H]3OC(C)(C)[C@@H](OC(=O)C(C)C)[C@H](O)[C@@H]3O)/C(C)=C/C(C)=C/C[C@@H]([C@@H](C)O)OC2=O)O[C@@H]1C | > 30 µM

Now take the following compound into account.
Dear colleague, please send me the reported AC50 for CC(Oc1c(Cl)cccc1Cl)C1=NCCN1 (stereo not drawn) when you can.
> 30 µM
